Taken from PubChem BioAssay (NCATS).

Test: qHTS assay to identify inhibitors of the type 1 interferon - major histocompatibility complex class I in skeletal muscle: Counter screen cell viability and HiBit confirmation (AID 1347412); further: nearly all actives have a fitted effect of over 60% in size
Conditions: iHSKM muscle cells + IFN-b, HiBiT or CellTiter-Glo, 24 h; HiBiT
Results filed as inconclusive are left out. Active and inactive are the calls of the source. The call rests on the fitted dose curve; in most records, active means well fitted inhibition curve with a large enough effect; inconclusive means small, poorly fitted or top-dose-only effect; inactive means no such curve, though single readings can be large or run the other way.
Assign a class; possible classes are 1 = active, 0 = inactive

See these solved cases before continuing.
chemical-structure	class-name
COc1cc(Nc2ncc3c(n2)-c2ccc(Cl)cc2C(c2c(F)cccc2OC)=NC3)ccc1C(=O)O	0
COc1c(Cl)cc2c([nH]c3cnccc32)c1NC(=O)c1cccnc1C	0
CC[C@@H](C)[C@H](NC(=O)[C@H](CC1CCCCC1)NC(=O)c1ccno1)C(=O)N1CCC2(CCc3ccccc32)CC1	0
Cc1cnc(Nc2ccc(OCCN3CCCC3)cc2)nc1Nc1cccc(S(=O)(=O)NC(C)(C)C)c1	1

Please indicate how the test categorized Cc1cc(Nc2nc(N[C@@H](C)c3ncc(F)cn3)ncc2Cl)n[nH]1 .
1

* * *

Assay: AP1 Signaling Pathway (AID 357);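 further: ME-180 reporter cells stimulated with EGF at its EC50 level; on the % scale 0 is the no-effect control and ±100 the full control effect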
Settings: ME-180 (cervical carcinoma) AP-1-bla reporter, EGF-induced, beta-lactamase ratio, 5 h; at 17.2 µM (top of the series)
Results filed as inconclusive are left out.
Measured activity change, negative = inhibition values are reported for all entries that follow.
Please state the figure in %; there is no need to write the unit.

Some compounds with recorded activity change, negative = inhibition:
compound	activity change, negative = inhibition (%)
Clc1cccc(Cl)c1NC1=NCCN1	-0.203
CC(C[N+](C)(C)C)OC(N)=O (stereo unspecified)	1.75
Cc1ccccc1C(OCCN(C)C)c1ccccc1 (stereo unspecified)	14.6
CNC[C@H](O)c1cccc(O)c1	-10.2
C[C@]12CCC(=O)C=C1CC[C@@H]1[C@@H]2[C@@H](O)C[C@@]2(C)[C@H]1CC[C@]2(O)C(=O)CO	-3.8

Noted for Nc1ccc(S(=O)(=O)Nc2ccnn2-c2ccccc2)cc1 : its activity change, negative = inhibition reads 1.79

* * *

Tested on: NIH3T3
Test: Cytotoxic Profiling of Annotated Libraries Using Quantitative High-Throughput Screening (AID 1296008); further: nearly all actives have a fitted effect of over 60% in size
Conditions: Five cell lines viability, CellTiter-Glo ATP luminescence, 48-72 h
Description: Cell-based phenotypic screening is a commonly used approach to discover biological pathways, novel drug targets, chemical probes and high-quality hit-to-lead molecules. […] A pintool (Kalypsys) was used to transfer 23 nL of compound solution to the 1536-well assay plates. […] Plates were left at room temperature for 10 min before imaging the ATP-coupled luminescence using a ViewLux microplate imager (PerkinElmer, Waltham, MA).
Results filed as inconclusive are left out. Activity calls are given as the source filed them. Calls come from the whole dose curve; as a rule, active = well fitted inhibition curve with a large enough effect; inconclusive = small, poorly fitted or top-dose-only effect; inactive = flat fitted curve, though single readings scatter.
Assign a class; possible classes are active, inactive

See these solved cases before continuing.
molecule	class-name
COc1cc2c(cc1OC)CN(CCc1ccc(NC(=O)c3cccc4c(=O)c5cccc(OC)c5[nH]c34)cc1)CC2	inactive
CNC[C@H](O)c1cccc(O)c1	inactive
Cc1c(CN2CCN(C(=O)C(C)C)CC2)sc2c(N3CCOCC3)nc(-c3cnc(N)nc3)nc12	active

Please indicate how the test categorized CC(C=CC1=C(C)CCCC1(C)C)=CC=CC(C)=CC(=O)O .
inactive

Please indicate how the test categorized CCn1c(-c2nonc2N)nc2cnc(Oc3cccc(NC(=O)c4ccc(OCCN5CCOCC5)cc4)c3)cc21 .
active

* * *

Assay: Cytotoxicity counterscreen for NFkB agonists and antagonists (AID 624476);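 further: cells exposed to compound for 48 hours; on the % scale 0 is the no-effect control and ±100 the full control effect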
Conditions: NFkB reporter cell line viability counterscreen; series mostly up to 46.1 µM
Inconclusive results are not listed. Calls of active or inactive are those of the source. Calls follow the shape of the dose curve; as a rule, active = well fitted curve in the direction sought with a large enough effect; inconclusive = small, poorly fitted or top-dose-only effect, or another doubt; inactive = no such curve, though single readings can be large or run the other way.
Assign a class; possible classes are active, inactive

compound	class-name
CS(=O)(=O)Oc1ccc2c(NC(N)=O)c(C(=O)c3ccc(Cl)cc3Cl)oc2c1	inactive

Please indicate how the test categorized CNC(=O)c1ccccc1Sc1ccc2c(/C=C/c3ccccn3)n[nH]c2c1 .
inactive

Please indicate how the test categorized OCCn1cc(-c2cnc3nnn(Cc4ccc5ncccc5c4)c3n2)cn1 .
inactive

Please indicate how the test categorized Cc1ccnc(NS(=O)(=O)c2ccc(NC(=O)Nc3ccc(S(=O)(=O)Nc4nccc(C)n4)cc3)cc2)n1 .
inactive

* * *

Experiment: qHTS of pediatric cancer cell lines to identify multiple opportunities for drug repurposing: Primary screen for SK-N-MC cells (AID 1347093)
Details: SK-N-MC viability, CellTiter-Glo luminescence, 48 h; series mostly up to 46 µM
Procedure: Drug repurposing or repositioning has been offered as a strategy for drug development in oncology programs. […] [1] Shen, M et al. Quantitative high-throughput phenotypic screening of pediatric cancer cell lines identifies multiple opportunities for drug repurposing. […] Cells were assayed in growth media at a density of 500-1,000 cells/well. […] After a 15 min incubation at room temperature, samples were analyzed for luminescence intensity using a ViewLux High-throughput CCD imager equipped with clear filters.
Results filed as inconclusive are left out. Active and inactive are the calls of the source. Calls come from the whole dose curve; as a rule, active = well fitted cell-killing curve with a large enough effect; inconclusive = small, poorly fitted or top-dose-only effect; inactive = no such curve, though single readings can be large or run the other way.
Assign a class; possible classes are active, inactive

Please indicate how the test categorized CN[C@@H](C)C(=O)N[C@H]1CCCC[C@H]2CC[C@@H](C(=O)N[C@@H](c3ccccc3)c3cn(CCCCc4ccc(CCCCn5cc([C@@H](NC(=O)[C@@H]6CC[C@@H]7CCCC[C@H](NC(=O)[C@H](C)NC)C(=O)N76)c6ccccc6)nn5)cc4)nn3)N2C1=O .
active

Please indicate how the test categorized CCn1cc(C(=O)O)c(=O)c2cc(F)c(N3CCNC(C)C3)c(F)c21 (centres undefined) .
inactive

Please indicate how the test categorized CCc1ccc(CCOc2ccc(CC3SC(=O)NC3=O)cc2)nc1 (centres undefined) .
inactive

Please indicate how the test categorized CNC(=O)c1ccc(N2C(=S)N(c3ccc(C#N)c(C(F)(F)F)c3)C(=O)C2(C)C)cc1F .
inactive

Please indicate how the test categorized OCCn1cc(-c2cnc3nnn(Cc4ccc5ncccc5c4)c3n2)cn1 .
inactive

Please indicate how the test categorized COc1nc(-c2ccc3c(c2)OCO3)n(-c2ccc(NC(=O)CSc3ccccc3)cc2)n1 .
inactive

Please indicate how the test categorized NC(=O)c1cnccn1 .
inactive

Please indicate how the test categorized N[C@@H]1CONC1=O .
inactive

Please indicate how the test categorized O=C(O)COCCN1CCN(C(c2ccccc2)c2ccc(Cl)cc2)CC1 (centres undefined) .
inactive

* * *

Assay: Quantitative High-Throughput drug screen in 47 multiple myeloma cell lines against the NCATS MIPE library collection: OPM2_DSMZ cell viability assay (AID 1919872); further: nearly all actives have a fitted effect of over 30% in size
Details: OPM2 myeloma viability, CellTiter-Glo ATP luminescence, 48 h; series mostly up to 45.8 µM
Records with an inconclusive call do not appear. Calls of active or inactive are those of the source. Calls come from the whole dose curve; as a rule, active = well fitted cell-killing curve with a large enough effect; inconclusive = small, poorly fitted or top-dose-only effect, or effect the other way; inactive = no such curve, though single readings can be large or run the other way.
Assign a class; possible classes are active, inactive

See these solved cases before continuing.
compound	class-name
NC(N)=NC(=O)c1nc(Cl)c(N)nc1N	inactive
Nc1nc2c(ncn2COCCO)c(=O)[nH]1	inactive

Please indicate how the test categorized CC(=O)NC(C)c1ccc(Oc2ccc(OC(C)C)cc2)cc1 (stereo not given) .
active

Please indicate how the test categorized NC(=O)c1ccc(-c2nc(-c3ccc4c(c3)OCCO4)c(-c3ccccn3)[nH]2)cc1 .
active

Please indicate how the test categorized CN1CCN(CCCN2c3ccccc3Sc3ccc(C(F)(F)F)cc32)CC1 .
inactive

Please indicate how the test categorized COc1ccc(-c2ccc3c(N4CCOC[C@H]4C)nc(N4CCOC[C@H]4C)nc3n2)cc1CO .
active

Please indicate how the test categorized C[C@]1(c2nc3c(C(N)=O)cccc3[nH]2)CCCN1 .
inactive

* * *

Assay: Quantitative High-Throughput drug screen in 47 multiple myeloma cell lines against the NCATS MIPE library collection: PE2_PLB cell viability assay (AID 1919869); further: nearly all actives have a fitted effect of over 35% in size
Conditions: PE2_PLB myeloma cells viability, ATP luminescence, 48 h; series mostly up to 45.8 µM
Description: PI: Beverly A. Mock Ph.D. Laboratory of Cancer Biology and Genetics, Center for Cancer Research, National Cancer Institute, National Institute of Health, Bethesda, Maryland […] 5; Detector; 425V; Luminescence; Viewlux PerkinElmer. […] 1. […] Briefly, the corresponding myeloma cell lines were screened in 1,536-well plates with 500 cells, 5-uL per well for inhibition of cell viability (assessed by measuring ATP levels with CellTiterGlo). […]
Records with an inconclusive call do not appear. The source made the active and inactive calls. The call rests on the fitted dose curve; in most records, active means well fitted cell-killing curve with a large enough effect; inconclusive means small, poorly fitted or top-dose-only effect, or effect the other way; inactive means no such curve, though single readings can be large or run the other way.
Assign a class; possible classes are active, inactive

See these solved cases before continuing.
chemical-structure	class-name
Oc1cccc(-c2nc(N3CCOCC3)c3oc4ncccc4c3n2)c1	active
O=C(C=Cc1ccc(/C=C/C(=O)Nc2ccc(C3=NCCN3)cc2)cc1)Nc1ccc(C2=NCCN2)cc1	inactive
COc1cc2c(cc1OC)CN(CCc1ccc(NC(=O)c3cccc4c(=O)c5cccc(OC)c5[nH]c34)cc1)CC2	active
CS(=O)(=O)Oc1ccc2c(NC(N)=O)c(C(=O)c3ccc(Cl)cc3Cl)oc2c1	active

Please indicate how the test categorized Cc1[nH]c(=O)c(C#N)cc1-c1ccncc1 .
active

* * *

Measured growth, % of control values are reported for all entries that follow.
Experiment: qHTS profiling of the MIPE4 collection as inhibitors of Plasmodium falciparum (HB3) proliferation (AID 743347);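 further: plate controls were DMSO vehicle wells for no effect and artemisinin wells for full effect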
Details: P. falciparum HB3 in erythrocytes, SYBR Green DNA, 72 h; at 28.5 µM (top of the series) unless noted
Please state the figure in %; there is no need to write the unit.

compound	units-symbol	numeric-result
NS(=O)(=O)c1cc2c(cc1Cl)NC=NS2(=O)=O	%	105
Oc1ccc(C2CNCCc3c2cc(O)c(O)c3Cl)cc1 (stereo unspecified)	%	7.76
NC[C@H](O)c1ccc(O)c(O)c1	%	82.4
COc1ccccc1[C@H](c1cccc2ccccc12)[C@@](C)(C#N)C(=O)N1CCC(c2cccc(C(F)(F)F)c2)CC1	%	6.38
c1ccc([C@H]2CN3CCSC3=N2)cc1	%	95.1

Please examine the following record next.
Noted for CC(=O)Oc1ccccc1C(=O)O : its growth, % of control reads 94.6
